Experimental System: ALK3 (Homo sapiens)
Construct: T7 phage fusion (or DNA tag for qPCR if made in HEK-293); purchased DiscoverX; host or cells: E. coli (T7 phage) or HEK-293
Sequence (P36894 24-532): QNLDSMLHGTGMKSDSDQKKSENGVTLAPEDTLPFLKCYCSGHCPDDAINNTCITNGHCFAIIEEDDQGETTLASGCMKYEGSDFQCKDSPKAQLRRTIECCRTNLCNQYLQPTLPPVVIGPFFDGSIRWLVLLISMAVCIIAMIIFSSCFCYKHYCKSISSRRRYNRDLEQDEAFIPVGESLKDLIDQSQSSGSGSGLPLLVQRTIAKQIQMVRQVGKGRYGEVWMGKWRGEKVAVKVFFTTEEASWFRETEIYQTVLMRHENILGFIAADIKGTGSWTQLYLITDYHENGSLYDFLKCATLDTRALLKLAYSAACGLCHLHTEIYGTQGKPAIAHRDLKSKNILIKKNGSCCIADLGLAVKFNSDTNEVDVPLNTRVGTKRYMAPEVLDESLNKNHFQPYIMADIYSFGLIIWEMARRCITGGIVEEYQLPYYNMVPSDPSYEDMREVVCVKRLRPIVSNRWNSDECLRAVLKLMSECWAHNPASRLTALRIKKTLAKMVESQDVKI
Experimental Details: DiscoverX Kd determination
Assay type: binding
Consider the following compounds; for each one, report its Kd.
Answers are plain numbers, in nM.

Compound: Cc1cc2cc(c1)-c1cnn3ccc(nc13)NCCNC(=O)CCN(C)C2 [OD52]
Units Text: nM
Kd: 1300

Next:
Consider the compound shown here: Clc1cc2cc(c1)-c1cnn3ccc(nc13)NCCOCCO2 [OD36] What is its recorded Kd?
3000

* * *

Experimental Details: Microsomal incubations, hLM
Format: in vitro ADME
Experimental Conditions: human, pooled liver microsomes, pH 7.4; microsomes 0.5 mg/ml, 0.5 μM compound; read-out: Metabolic clearance hLM
Attribute Measured: microsomal CLint at 0.5 μM (µL/min/mg)
One number for each entry, in µL/min/mg.

Return reported microsomal CLint at 0.5 μM values for all items listed beneath this line.
1. c1ccc2c(-c3cnn4cc(-c5ccc(N6CCNCC6)cc5)cnc34)ccnc2c1 [LDN-193189, reference compound]
2. Cc1cc2cc(c1)-c1cnn3ccc(nc13)NCCNC(=O)CCN(C)C2

[61, 72]

Consider the molecule shown here: Clc1cc2cc(c1)-c1cnn3ccc(nc13)NCCOCCO2 What is its recorded microsomal CLint at 0.5 μM?
59
